measurement-target: histamine receptor H1 (Homo sapiens)
Sequence (P35367 whole entry): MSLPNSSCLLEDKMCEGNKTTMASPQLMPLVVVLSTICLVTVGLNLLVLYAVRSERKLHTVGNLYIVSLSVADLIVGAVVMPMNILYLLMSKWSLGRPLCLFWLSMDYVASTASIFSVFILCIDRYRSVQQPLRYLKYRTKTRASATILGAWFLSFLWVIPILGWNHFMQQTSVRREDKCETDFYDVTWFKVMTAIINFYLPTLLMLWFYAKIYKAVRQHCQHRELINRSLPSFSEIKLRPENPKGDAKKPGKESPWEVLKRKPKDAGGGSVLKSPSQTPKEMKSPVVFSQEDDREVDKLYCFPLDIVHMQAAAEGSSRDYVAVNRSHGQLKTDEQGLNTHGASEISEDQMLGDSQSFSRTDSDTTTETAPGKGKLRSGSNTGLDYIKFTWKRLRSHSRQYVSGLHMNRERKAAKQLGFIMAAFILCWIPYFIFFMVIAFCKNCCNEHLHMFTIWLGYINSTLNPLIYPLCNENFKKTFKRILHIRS
test-summary: Histamine H1 radioligand binding ([3H]Pyrilamine)
study-conditions: read-out: Histamine Binding (1 μM) H1, percent inhibition of specific binding, 1 μM
Collected inhibition at 1 µM values appear next to each entry.
quantity-name: inhibition at 1 µM

* C/C(=C\n1c2c(c3cc(C)ccc31)CN(C)CC2)c1ccc(F)cc1 [Compound 87] | 65%
* Cc1ccc2c(c1)c1c(n2C#Cc2cccs2)CCN(C)C1 [Compound No. 493] | 69%
* Cc1ccc2c(c1)c1c(n2CC(C)(O)c2cccnc2)CCN(C)C1 (stereo not drawn) [Compound 60] | 52%
* C/C(=C\n1c2c(c3cc(C)ccc31)CN(C(C)C)CC2)c1ccncc1 [Compound 272] | 48%
* CCCCNc1ccc2c(c1)c1c(n2/C=C(\C)c2ccc(F)cc2)CCN(C)C1 [compound 432] | 46%
* C/C(=C\n1c2c(c3c(Cl)c(Cl)ccc31)CN(C)CC2)c1ccncc1 [Compound 245] | 60%
* Cc1ccc2c(c1)c1c(n2CC(C)(O)c2ccc(C)nc2)CCN(C)C1 (stereo not drawn) [Compound 52] | 46%
* Cc1ccc2c(c1)c1c(n2/C=C/c2ccccc2)CCN(C)C1 [Compound 202] | 100%
* CNC(=O)C/C(=C\n1c2c(c3cc(C)ccc31)CN(C)CC2)c1ccc(F)cc1 [Compound 207] | 15%

###

measurement-target: histamine receptor H1 (Homo sapiens)
test-summary: Histamine H1 radioligand binding ([3H]Pyrilamine)
study-conditions: read-out: Histamine Binding (1 μM) H1, percent inhibition of specific binding, 1 μM
Using inhibition at 1 µM as the sorting value, the categories are small value: < 20%; mid value: ≥ 20% and < 60%; large value: ≥ 60%

• C=C(Cn1c2c(c3cc(C)ccc31)CN(C)CC2)c1ccc(O)cc1 = large value
• Cc1ccc2c(c1)c1c(n2C#Cc2ccc(C3CC3)nc2)CCN(C)C1 = small value
• Cc1ccc2c(c1)c1c(n2/C=C(/c2ccncc2)C(C)(C)C)CCN(C)C1 = small value
• CN1CCc2c(c3cc(Cl)ccc3n2C/C=C/c2ccncc2)C1 = large value
• Cc1ccc(C(O)Cn2c3c(c4cc(C)ccc42)CN(C)CC3)cc1 (racemic) = large value
• C/C(=C\n1c2c(c3cc(C)ccc31)CN(C)[C@H](C)C2)c1ccncc1 = mid value
• CC(=O)CN1CCc2c(c3cc(C)ccc3n2/C=C(\C)c2ccncc2)C1 = small value
• CSc1ccc(/C(C)=C/n2c3c(c4cc(C)ccc42)CN(C)CC3)cc1 = mid value
• Cc1ccc2c(c1)c1c(n2CC(C)(O)c2ccc(O)cc2)CCN(C)C1 (centres unmarked) = mid value
• CC(C)C(O)(Cn1c2c(c3cc(Cl)ccc31)CN(C)CC2)c1ccncc1 (centres unmarked) = small value
• CN1CCc2c(c3cc(Cl)ccc3n2CC(O)(c2ccccc2)c2ccccc2)C1 = small value
• C/C=C(/Cn1c2c(c3cc(C)ccc31)CN(C)CC2)c1ccncc1 = large value
• CN1CCc2c(c3cccc(F)c3n2CC(C)(O)c2ccncc2)C1 (centres unmarked) = small value
• C=CCN1CCc2c(c3cc(Cl)ccc3n2/C=C(\C)c2ccncc2)C1 = large value
• C/C(=C\n1c2c(c3cc(Cl)ccc31)CN(C)CC2)c1ccccc1F = large value
• C/C=C(\Cn1c2c(c3cc(C)ccc31)CN(C)CC2)c1ccncc1 = mid value
• C/C(=C\n1c2c(c3cc(Cl)ccc31)CN(C)CC2)c1cncnc1 = small value
• CN1CCc2c(c3c(Cl)c(Cl)ccc3n2CC(C)(O)c2ccncc2)C1 (centres unmarked) = small value
• C/C(=C\n1c2c(c3cc(N4CCCC4)ccc31)CN(C)CC2)c1ccncc1 = small value
• C/C(=C\n1c2c(c3ccccc31)CN(C)CC2)c1ccc(F)cc1 = mid value
• CCCCC(O)(Cn1c2c(c3cc(Cl)ccc31)CN(C)CC2)c1ccc(F)cc1 (centres unmarked) = mid value
• C/C(=C\n1c2c(c3cc(C)ccc31)CN(C)CC2)c1ccc(O)cc1 = large value
• C/C(=C\n1c2c(c3cc(NC4CC4)ccc31)CN(C)CC2)c1ccncc1 = small value
• C/C(=C\n1c2c(c3cc(C)ccc31)CN(C)CC2)c1cncnc1 = small value
• COc1ccc(C(C)(O)Cn2c3c(c4cc(Cl)ccc42)CN(C)CC3)cc1F (centres unmarked) = large value
• C/C(=C\n1c2c(c3cc(Cl)ccc31)CN(C)CC2)c1cccnc1 = large value
• C=C(Cn1c2c(c3cccc(F)c31)CN(C)CC2)c1ccc(F)cc1 = large value
• C/C(=C\n1c2c(c3cc(Cl)ccc31)CN(C)CC2)c1ccc(Cl)cc1 = large value
• CNc1ccc2c(c1)c1c(n2/C=C(\C)c2ccncc2)CCN(C)C1 = small value
• C/C(=C\n1c2c(c3cc(F)c(F)cc31)CN(C)CC2)c1ccc(C)nc1 = small value
• CO/C(=C\n1c2c(c3cc(C)ccc31)CN(C)CC2)c1ccncc1 = small value
• Cc1ccc2c(c1)c1c(n2CC(C)(O)c2ccncc2)CCN(C2CC2)C1 (centres unmarked) = mid value
• C/C(=C/n1c2c(c3cc(C)ccc31)CN(C)CC2)c1ccc(Cl)c(Cl)c1 = large value
• Cc1ccc2c(c1)c1c(n2C=C(c2ccccc2)c2ccccc2)CCN(C)C1 = small value
• C/C=C(/c1ccccc1)n1c2c(c3cc(C)ccc31)CN(C)CC2 = large value
